The reader will find reported Growth Rate values listed item by item below.
# Test system: U2OS
# assay.details: Incucyte cell viability with U2OS; further: unitless GR value; below 1 slowed growth and below 0 cell loss
# Type: toxicity, cell-based
# particulars: human, 24 h, 10 µM, compound concentration 10 uM, replicate number 1
Square brackets hold non-standard residues; d marks the D form. Peptide text beside a SMILES is read from it. * marks the point of attachment. Benzoyl(4-OPh) = O=C(c1ccc(Oc2ccccc2)cc1)*; Lys(Et2) = CCN(CC)CCCC[C@H](N)C(=O)O; d(aIle) = CC[C@H](C)[C@@H](N)C(=O)O; Gly(cPent) = N[C@H](C(=O)O)C1CCCC1; Nle = CCCC[C@H](N)C(=O)O; NH(propargyl) = C#CCN*
quantity.measured: Growth Rate

O=C(Nc1ccc2[nH]nc(-c3ccncc3)c2c1)[C@@H]1CCN(CC(=O)N2CCN(c3ccc(-c4ncccn4)cc3)CC2)C1 = 0.65
COc1cc(O)c2c(c1)/C=C\C[C@H](O)[C@H](O)C(=O)/C=C\C[C@H](C)OC2=O = -0.54
COc1ccc(/C=C/C(=O)NO)c(-c2ccc(-c3ccccc3)cc2)c1 = -0.07
O=S(=O)(O)c1ccc2cc(/N=N/c3cc(S(=O)(=O)O)c4cccnc4c3O)ccc2c1 = -0.34
Cc1cc(C(=O)N2CCN(C3CN(C(=O)c4ccc(-c5ccccc5)cc4)C3)CC2)no1 = 0.79
CC(=O)N[C@@H](Cc1ccc(O)cc1)C(=O)N[C@H](C(=O)N[C@@H](C)C(=O)N[C@@H](CC(=O)O)C(=O)CCl)C(C)C = 1
CNC(=O)c1ccc(-c2cc3cccc(-c4nn(C5CCOCC5)c5c4CN(C(C)=O)CC5)c3cn2)cn1 = 0.12
CC(=O)OCCN1C(=O)c2c(C)nc3ccc(S(=O)(=O)N4CCOCC4)cc3c2C1=O = 0.83
CCCC[C@@H](C=O)NC(=O)[C@H](CC(C)C)NC(=O)[C@H](CC(C)C)NC(C)=O (Ac-Leu-Leu-[Nle]-aldehyde) = -0.08
O=C(C1CC1)N1CC[C@@H](Cc2n[nH]c(=O)n2-c2ccc(-c3ccc4occc4c3)cc2)C1 = 0.54
CC(C)n1nc(-c2cc3cc(O)ccc3[nH]2)c2c(N)ncnc21 = -0.49
NC(=O)c1cccc(NC(=O)CCC(=O)NCCc2cn(CCNS(=O)(=O)c3cccc(C(=O)O)c3)nn2)c1 = 0.49
Nc1ccc(-c2cccs2)cc1NC(=O)c1ccc2nc(N3CCNCC3)ccc2c1 = 0.21
CC[C@H](C)[C@H](NC(C)=O)C(=O)N[C@@H](CCC(=O)O)C(=O)N[C@H](C(=O)N[C@H](C=O)CC(=O)O)[C@@H](C)O.O=C(O)C(F)(F)F (Ac-IETD-aldehyde) = 1
O=C(NCCc1cc(C(=O)NO)no1)c1ccc(Cl)c(Cl)c1 = 0.33
CC(=O)N[C@H](C(=O)N[C@@H](CC(=O)O)C(=O)N[C@H](C(=O)N[C@@H](C)C(=O)N[C@H](C=O)CC(=O)O)C(C)C)C(C)C (Ac-VDVAD-aldehyde) = 0.65
CCCC(NC(=O)C(CC(C)C)NC(=O)OCc1ccccc1)C(=O)C(=O)NCc1ccccn1 (racemic) = 1
C#CCNC(=O)[C@H](CO)NC(=O)[C@H](CCCCN(CC)CC)NC(=O)[C@H](NC(=O)[C@@H](NC(=O)c1ccc(Oc2ccccc2)cc1)C1CCCC1)[C@@H](C)CC ({Benzoyl(4-OPh)}-[Gly(cPent)][d(aIle)][Lys(Et2)]S-{NH(propargyl)}) = 1
Nc1c[nH]c(=O)c2cc(-c3ccccc3)sc12 = -0.48
Cc1ncsc1-c1ccc([C@H](C)NC(=O)[C@@H]2C[C@@H](O)CN2C(=O)[C@@H](NC(=O)CNC(=O)c2ccc(F)c(-c3ccc(N4C[C@@H](C)N(C)[C@@H](C)C4)c(NC(=O)c4c[nH]c(=O)cc4C(F)(F)F)c3)c2)C(C)(C)C)cc1 = 1
C/C=C1\NC(=O)[C@H]2CSSCC/C=C/[C@H](CC(=O)N[C@H](C(C)C)C(=O)N2)OC(=O)[C@H](C(C)C)NC1=O = 1
COC(=O)C[C@@H]1N=C(c2ccc(Cl)cc2)c2c(sc(C)c2C)-n2c(C)nnc21 = 1
Cc1ncsc1-c1ccc(CNC(=O)[C@@H]2C[C@@H](O)CN2C(=O)[C@@H](NC(=O)COCCOCCOCCNC(=O)C[C@@H]2N=C(c3ccc(Cl)cc3)c3c(sc(C)c3C)-n3c(C)nnc32)C(C)(C)C)cc1 = -0.19
C[C@@H]1CN(c2ncc(Cl)c(Nc3ccc4c(c3)n(CCC(C)(C)O)c(=O)n4C)n2)C[C@H](C)C1(F)F = 0.72
Cc1ncc(Cl)cc1NCc1ccc(C(=O)N[C@@H](CC2CCCC2)C(=O)NC2CC2)s1 = 0.37
[2H]C([2H])([2H])C1(C([2H])([2H])[2H])Cn2nc(-c3ccc(F)cn3)c(-c3ccnc4[nH]ncc34)c2CO1 = 0.32
CC[C@H](C)[C@H](NC(=O)[C@H](CCC(=O)O)NC(=O)[C@@H](NC(C)=O)C(C)C)C(=O)N[C@H](C=O)CC(=O)O.O=C(O)C(F)(F)F (Ac-VEID-aldehyde) = 1
CC(=O)Nc1ccc(-c2cc(-c3ccccc3)nc3cc(C(=O)NCCCn4ccnc4)nn23)cc1 = 1
CNC(=O)c1cnc(N2CCC[C@H](N)C2)nc1Nc1cc(C(C)C)nc(C(C)C)c1 = -0.44
